Each recorded value in this set is attributed to PubChem BioAssay (NCI).

Assay: NCI Yeast Anticancer Drug Screen. Data for the mec2-1 strain (AID 157)
Conditions: S. cerevisiae mec2-1 strain, at 50.0 µM, stronger effect = higher value
About 79,000 compounds went through this panel and 15% of them were active in at least one assay; those are over-represented in the sample as a whole.
MEASURED_PROPERTY: growth inhibition (%)
Numbers only, in %.

// known answers, use as guide
N#Cc1c(SCc2ccc(Cl)cc2)nsc1Nc1ccc(Cl)cc1 | 88
O=C1CCSC(=S)N1c1ccc(N=Nc2ccccc2)cc1 | 97.6

Next item in the queue.
Challenge: Given NNC(=O)c1c(SCc2ccccc2)nc2c3ccccc3ccn12 , state its recorded growth inhibition.
Response given: 35
